Values compiled from patent US8906911B2.

assayed target: human CCR2B (Homo sapiens (Human), UniProt P41597)
Sequence (P41597 other isoform, or with tags, fused parts or gaps): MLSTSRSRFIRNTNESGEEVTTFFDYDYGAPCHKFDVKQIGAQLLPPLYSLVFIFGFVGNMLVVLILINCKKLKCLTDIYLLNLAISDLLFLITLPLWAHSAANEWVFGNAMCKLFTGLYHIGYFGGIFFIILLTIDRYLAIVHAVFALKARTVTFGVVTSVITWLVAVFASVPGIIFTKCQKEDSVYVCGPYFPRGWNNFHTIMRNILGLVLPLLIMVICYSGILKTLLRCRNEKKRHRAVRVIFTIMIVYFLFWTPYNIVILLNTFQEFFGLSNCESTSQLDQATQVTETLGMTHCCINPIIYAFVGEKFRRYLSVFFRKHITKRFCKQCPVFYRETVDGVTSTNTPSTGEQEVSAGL
assay text: Inhibition of [125I]-labeled MCP-1 binding to hCCR2B (radioligand binding in CHO cells)
quantity kind: Ki (nM)
Answers are plain numbers, in nM.

(Q) Assign Ki to the following record: CO[C@@H]1COCC[C@@H]1N[C@@H]1C[C@H]2CCC[C@@]2(C(=O)N2C[C@@H]3C[C@H]2CN3c2ccc(C#N)c(C(F)(F)F)c2)C1 (racemic)
(A) 66

###

Hi there, I'd appreciate the recorded pIC50 for every entry that follows.
assayed target: human CCR2B (Homo sapiens (Human), UniProt P41597)
assay text: Inhibition of native agonist (human MCP-1)-induced intracellular calcium release, calcium flux assay in CHO cells expressing human CCR2B and Gα16
Assay type: cell-based
condition details: calcium flux, human MCP-1 2 nM; read-out: hCCR2B IC50
Answers are plain numbers, as −log10 of the molar value.

CO[C@@H]1COCC[C@@H]1N[C@@H]1C[C@H]2CCC[C@@]2(C(=O)N2C[C@@H]3C[C@H]2CN3c2cccc(Cl)c2C#N)C1    5.80

Each of the following entries comes with a recorded value; kindly state pIC50 for each.
1. CO[C@@H]1COCC[C@@H]1N[C@@H]1C[C@H]2CCC[C@@]2(C(=O)N2C[C@@H]3C[C@H]2CN3c2nc(C(F)(F)F)cs2)C1
2. CO[C@@H]1COCC[C@@H]1N[C@@H]1C[C@H]2CCC[C@@]2(C(=O)N2C[C@@H]3C[C@H]2CN3c2cccc(C(F)(F)F)c2)C1
3. CO[C@@H]1COCC[C@@H]1N[C@@H]1C[C@H]2CCC[C@@]2(C(=O)N2C[C@@H]3C[C@H]2CN3c2ccc(C#N)cc2C(F)(F)F)C1
4. CO[C@@H]1COCC[C@@H]1N[C@@H]1C[C@H]2CCC[C@@]2(C(=O)N2C[C@@H]3C[C@H]2CN3c2ccnc(C(F)(F)F)n2)C1
5. CO[C@@H]1COCC[C@H]1N[C@@H]1C[C@H]2CCC[C@@]2(C(=O)N2C[C@@H]3C[C@H]2CN3c2cc(C(F)(F)F)ccn2)C1
6. CO[C@@H]1COCC[C@@H]1N[C@@H]1C[C@H]2CCC[C@@]2(C(=O)N2C[C@@H]3C[C@H]2CN3c2cc(F)cc(C(F)(F)F)c2)C1

(A)
1. 7.02
2. 7.12
3. 5.80
4. 6.41
5. 7.26
6. 7.04
